Readings of inhibition at 1 pM for the listed compounds
assay system: HGFR (Homo sapiens)
Construct: purchased Upstate 14-526
test protocol: HGFR continuous-coupled spectrophotometric assay
Format: biochemical
test parameters: at 1 pM; Table 6, library procedure 41; read-out: % Inhibition (percent c-MET inhibition)
Numeric answer only, unit % assumed.

INSERT INTO measurements (compound, quantity, reported_value) VALUES
  ('CC(NC(=O)c1cnc(N)c(OCc2c(Cl)cccc2Cl)c1)c1ccc(O)cc1 (stereo not shown)', 'inhibition at 1 pM', 36);

Prompt line: Field: inhibition at 1 pM (HGFR (Homo sapiens)). Entry: `CN(C)CC(C)(C)CNC(=O)c1cnc(N)c(OCc2c(Cl)cccc2Cl)c1`
Response line: 38

Prompt line: Now the compound Nc1ncc(C(=O)NC2COC3(CCN(Cc4ccncc4)CC3)C2)cc1OCc1c(Cl)cccc1Cl (stereo not shown)
Response line: 20

Prompt line: Now the compound `Nc1ncc(C(=O)NCCCN2CCCC2=O)cc1OCc1c(Cl)cccc1Cl`
Response line: 34

====

assay system: HGFR (Homo sapiens)
Construct: purchased Upstate 14-526
test protocol: HGFR continuous-coupled spectrophotometric assay
Assay type: biochemical
test parameters: at 1 pM; Table 7, library procedure 42; read-out: % Inhibition (percent c-MET inhibition)
quantity: inhibition at 1 pM (%)
Numeric answer only, unit % assumed.

INSERT INTO results (compound, quantity, reported_value) VALUES
  ('Nc1ncc(-c2ccc(C(=O)N3CCC(N4CCCC4)CC3)cc2)cc1OCc1ccc(C(=O)NCCN2CCOCC2)cc1', 'inhibition at 1 pM', 11),
  ('Nc1ncc(-c2ccc(C(=O)N3CCC(N4CCCC4)CC3)cc2)cc1OCc1ccc(F)c(F)c1', 'inhibition at 1 pM', 19),
  ('Nc1ncc(-c2ccc(C(=O)N3CCC(N4CCCC4)CC3)cc2)cc1OCc1nc2ncccc2o1', 'inhibition at 1 pM', 17),
  ('Nc1ncc(-c2ccc(C(=O)N3CCC(N4CCCC4)CC3)cc2)cc1OC1OC(=O)c2ccccc21 (centres unmarked)', 'inhibition at 1 pM', 4),
  ('Nc1ncc(-c2ccc(C(=O)N3CCC(N4CCCC4)CC3)cc2)cc1OCC1=C(Cl)SNN1', 'inhibition at 1 pM', 19),
  ('Nc1ncc(-c2ccc(C(=O)N3CCC(N4CCCC4)CC3)cc2)cc1OCc1ccc(C(=O)NC2CCN(Cc3ccccc3)C2)cc1 (centres unmarked)', 'inhibition at 1 pM', 24);

Prompt line: Requested field: inhibition at 1 pM. Item: `Nc1ncc(-c2ccc(C(=O)N3CCC(N4CCCC4)CC3)cc2)cc1OCc1cccc2cccnc12`
Response line: 22

Prompt line: Now the compound `Cc1ccc(-c2nnc(COc3cc(-c4ccc(C(=O)N5CCC(N6CCCC6)CC5)cc4)cnc3N)o2)cc1`
Response line: 18

Prompt line: Now the compound `Nc1ncc(-c2ccc(C(=O)N3CCC(N4CCCC4)CC3)cc2)cc1OCc1nc2ccccc2[nH]1`
Response line: 4

Prompt line: Now the compound `Nc1ncc(-c2ccc(C(=O)N3CCC(N4CCCC4)CC3)cc2)cc1OCc1cc(Cl)cc(Cl)c1`
Response line: 19

Prompt line: Now the compound `COc1ccccc1-c1nc(COc2cc(-c3ccc(C(=O)N4CCC(N5CCCC5)CC4)cc3)cnc2N)no1`
Response line: 8

Prompt line: Now the compound `Nc1ncc(-c2ccc(C(=O)N3CCC(N4CCCC4)CC3)cc2)cc1OCc1ccc(F)c(C(F)(F)F)c1`
Response line: 13

Prompt line: Now the compound `Nc1ncc(-c2ccc(C(=O)N3CCC(N4CCCC4)CC3)cc2)cc1OCc1cn2cc(Cl)ccc2n1`
Response line: 16

====

assay system: Met kinase domain (GST fusion protein) (Homo sapiens, UniProt P08581)
Construct: Purified GST fusion protein containing the Met kinase domain
Sequence (P08581 1078-1345 limits assumed): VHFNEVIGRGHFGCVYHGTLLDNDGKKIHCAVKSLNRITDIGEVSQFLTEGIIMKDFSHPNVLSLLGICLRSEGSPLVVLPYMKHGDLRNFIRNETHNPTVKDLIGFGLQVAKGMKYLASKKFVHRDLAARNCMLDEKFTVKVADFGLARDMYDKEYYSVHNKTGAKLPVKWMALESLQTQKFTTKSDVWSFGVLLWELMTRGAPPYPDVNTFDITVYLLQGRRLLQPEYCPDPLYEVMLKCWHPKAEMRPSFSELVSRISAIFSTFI
test protocol: Met transphosphorylation assay (ELISA, poly(glu-tyr) substrate);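 further: Cell-free ELISA with plate-bound poly(Glu:Tyr 4:1) phosphorylated by GST-fused Met kinase domain plus ATP and Mn2+, phosphotyrosine detected by anti-phosphotyrosine antibody with HRP and ABTS read-out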
Format: biochemical
test parameters: Table 2; read-out: Met IC50
quantity: IC50 (µM)
Numeric answer only, unit µM assumed.

INSERT INTO results (compound, reported_value) VALUES
  ('Nc1ncc(-c2cccc(C(=O)NCCCN3CCCC3)c2)cc1OCc1c(F)ccc(F)c1Cl', 0.28),
  ('CN1CCC(NC(=O)c2ccc(-c3cnc(N)c(OCc4c(F)ccc(F)c4Cl)c3)cc2)CC1', 0.11),
  ('CC(Oc1cc(-c2cccc(C(=O)N3CCC[C@H]3CN3CCCC3)c2)cnc1N)c1c(Cl)ccc(F)c1Cl (stereo partly shown)', 0.06),
  ('CC(Oc1cc(-c2ccc(NS(=O)(=O)CCN3CCCCC3)cc2)cnc1N)c1c(F)ccc(F)c1Cl (stereo not shown)', 0.18),
  ('Nc1ncc(-c2ccc(NS(=O)(=O)CCNCC3CC3)cc2)cc1OCc1c(F)ccc(F)c1Cl', 0.075),
  ('CC(Oc1cc(-c2cccc(C(=O)N3CCN(C)CC3)c2)cnc1N)c1c(Cl)ccc(F)c1Cl (stereo not shown)', 0.062);

Prompt line: Requested field: IC50. Item: `Nc1ncc(-c2ccc(NS(=O)(=O)CCN3CCC(O)CC3)cc2)cc1OCc1c(F)ccc(F)c1Cl`
Response line: 0.135

====

assay system: HGFR (Homo sapiens, UniProt P08581)
Construct: purchased Upstate 14-526
Sequence (P08581 974-1390 limits assumed): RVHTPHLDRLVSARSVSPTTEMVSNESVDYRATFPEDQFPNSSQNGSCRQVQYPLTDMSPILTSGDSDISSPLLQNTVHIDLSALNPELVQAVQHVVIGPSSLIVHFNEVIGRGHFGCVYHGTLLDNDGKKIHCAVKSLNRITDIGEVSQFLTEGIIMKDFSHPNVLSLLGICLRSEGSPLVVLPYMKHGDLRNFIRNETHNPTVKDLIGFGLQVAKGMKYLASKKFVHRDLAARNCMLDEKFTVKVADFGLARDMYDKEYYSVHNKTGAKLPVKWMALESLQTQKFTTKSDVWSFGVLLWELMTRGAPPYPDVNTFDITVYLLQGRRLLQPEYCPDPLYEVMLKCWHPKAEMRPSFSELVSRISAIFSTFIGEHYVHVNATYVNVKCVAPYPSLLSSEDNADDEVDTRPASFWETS
test protocol: HGFR continuous-coupled spectrophotometric assay
Type: biochemical
test parameters: at 1 pM; Table 7, library procedure 42; read-out: % Inhibition (percent c-MET inhibition)
quantity: inhibition at 1 pM (%)
Numeric answer only, unit % assumed.

INSERT INTO results (compound, unit, reported_value) VALUES
  ('Nc1ncc(-c2ccc(C(=O)N3CCC(N4CCCC4)CC3)cc2)cc1OCc1cc(-c2ccccc2)no1', '%', 23),
  ('Cc1nc2scc(COc3cc(-c4ccc(C(=O)N5CCC(N6CCCC6)CC5)cc4)cnc3N)c2c(=O)[nH]1', '%', 10),
  ('Nc1ncc(-c2ccc(C(=O)N3CCC(N4CCCC4)CC3)cc2)cc1OCc1nccn1Cc1ccccc1', '%', 8),
  ('Nc1ncc(-c2ccc(C(=O)N3CCC(N4CCCC4)CC3)cc2)cc1OCc1csc(-c2ccc(Cl)cc2)n1', '%', 9),
  ('Nc1ncc(-c2ccc(C(=O)N3CCC(N4CCCC4)CC3)cc2)cc1OCc1nc(-c2ccccn2)no1', '%', 9),
  ('CC(=O)N(c1ccc(C)cc1)c1nc(COc2cc(-c3ccc(C(=O)N4CCC(N5CCCC5)CC4)cc3)cnc2N)cs1', '%', 9),
  ('CC(=O)Nc1nc(COc2cc(-c3ccc(C(=O)N4CCC(N5CCCC5)CC4)cc3)cnc2N)cs1', '%', 9),
  ('Nc1ncc(-c2ccc(C(=O)N3CCC(N4CCCC4)CC3)cc2)cc1OCc1ccc(Cl)cc1', '%', 15);

Prompt line: Field: inhibition at 1 pM (HGFR (Homo sapiens, UniProt P08581)). Entry: `Nc1ncc(-c2ccc(C(=O)N3CCC(N4CCCC4)CC3)cc2)cc1OCc1ccc(C(F)(F)F)c(F)c1`
Response line: 25

Prompt line: Now the compound `Cc1nc(COc2cc(-c3ccc(C(=O)N4CCC(N5CCCC5)CC4)cc3)cnc2N)cs1`
Response line: 6

Prompt line: Now the compound `Cc1cccc(COc2cc(-c3ccc(C(=O)N4CCC(N5CCCC5)CC4)cc3)cnc2N)n1`
Response line: 17

Prompt line: Now the compound `COc1ccnc(COc2cc(-c3ccc(C(=O)N4CCC(N5CCCC5)CC4)cc3)cnc2N)c1OC`
Response line: 23

Prompt line: Now the compound `Nc1ncc(-c2ccc(C(=O)N3CCC(N4CCCC4)CC3)cc2)cc1OCc1cc(F)c(F)cc1F`
Response line: 12

Prompt line: Now the compound `N#Cc1ccccc1-c1ccc(COc2cc(-c3ccc(C(=O)N4CCC(N5CCCC5)CC4)cc3)cnc2N)cc1`
Response line: 77

Prompt line: Now the compound `Nc1nc(COc2cc(-c3ccc(C(=O)N4CCC(N5CCCC5)CC4)cc3)cnc2N)nc(Nc2ccccc2)n1`
Response line: 9

Prompt line: Now the compound `Nc1ncc(-c2ccc(C(=O)N3CCC(N4CCCC4)CC3)cc2)cc1OCc1cc(F)c(F)c(F)c1`
Response line: 19

Prompt line: Now the compound CC(Oc1cc(-c2ccc(C(=O)N3CCC(N4CCCC4)CC3)cc2)cnc1N)c1ccccc1 (stereo not shown)
Response line: 10

Prompt line: Now the compound `Nc1ncc(-c2ccc(C(=O)N3CCC(N4CCCC4)CC3)cc2)cc1OCc1ccc2ccc(Cl)cc2n1`
Response line: 24

Prompt line: Now the compound `Cc1cc(C)nc(COc2cc(-c3ccc(C(=O)N4CCC(N5CCCC5)CC4)cc3)cnc2N)n1`
Response line: 16

Prompt line: Now the compound `Cc1cnccc1COc1cc(-c2ccc(C(=O)N3CCC(N4CCCC4)CC3)cc2)cnc1N`
Response line: 11

Prompt line: Now the compound `Nc1ncc(-c2ccc(C(=O)N3CCC(N4CCCC4)CC3)cc2)cc1OCc1nc(CS(=O)(=O)c2ccccn2)no1`
Response line: 9

Prompt line: Now the compound `Nc1ncc(-c2ccc(C(=O)N3CCC(N4CCCC4)CC3)cc2)cc1OCc1ccc(OCc2ccccc2)cc1`
Response line: 49

Prompt line: Now the compound `Nc1ncc(-c2ccc(C(=O)N3CCC(N4CCCC4)CC3)cn2)cc1OCc1ccc(-c2csnn2)cc1`
Response line: 41

Prompt line: Now the compound `Nc1ncc(-c2ccc(C(=O)N3CCC(N4CCCC4)CC3)cc2)cc1OCc1cccc(C(=O)Nc2ccc(N3CCCCC3)cc2)c1`
Response line: 32

Prompt line: Now the compound `Nc1ncc(-c2ccc(C(=O)N3CCC(N4CCCC4)CC3)cc2)cc1OCc1nc(-c2ccccc2)n[nH]1`
Response line: -2

Prompt line: Now the compound `Nc1ncc(-c2ccc(C(=O)N3CCC(N4CCCC4)CC3)cc2)cc1OCc1ccc(C(=O)NCc2ccccn2)cc1`
Response line: 7
